// values below are reported GI50
system: SK-MEL-28; assay: Inhibition of cells growth by colorimetric assay (SRB); conditions: Homo sapiens, SK-MEL-28, 48 h, read-out: MEL-28 GI50
// note: answer is a bare numeric in nM

• C=CCN1[C@@H]2c3c(cc(C)c(OC)c3O)C[C@H]1[C@H](O)N1C2[C@@H]2SC[C@]3(NCCc4cc(O)c(OC)cc43)C(=O)OC[C@H]1c1c3c(c(C)c(OC(C)=O)c12)OCO3 (stereo partly drawn) = 20.4
• COc1cc2c(cc1O)CCN[C@]21CS[C@@H]2c3c(OC(C)=O)c(C)c4c(c3[C@H](COC1=O)N1C2C2c3c(cc(C)c(OC)c3O)C[C@@H]([C@@H]1C#N)N2C)OCO4 (stereo partly drawn) = 2.63

API: the following record is the query input.
Write down the reported GI50 of COc1cc2c(cc1O)CCN[C@]21CS[C@@H]2c3c(OC(C)=O)c(C)c4c(c3[C@H](CNC1=O)N1C2[C@H]2c3c(cc(C)c(OC)c3O)CC([C@@H]1O)N2C)OCO4 (stereo partly drawn) , test system: SK-MEL-28. 63.1
